Exercise: for every item that follows, state its recorded Bliss excess.
- Test system: SNU-16 (Gastric Carcinoma);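 note: after 72 h of two-drug dosing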
- Test details: Bliss excess, mean over the matrix (fraction); higher = more synergy
Answers are plain numbers.

INSERT INTO measurements (compound, measured_on, observed) VALUES
  ('COc1nnc2ccc(N3CCC(c4ccc(OCCN5CCN(C)C(=O)[C@H]5C)cc4)CC3)nn12 [AZD5153] + C[C@@H]1COCCN1C2=NC(=NC(=C2)C3(CC3)[S@](=N)(=O)C)C4=C5C=CNC5=NC=C4 [AZD6738] (first compound max 1 µM, 7x7, partner max 10 µM)', 'SNU-16 (Gastric Carcinoma)', -0.0408),
  ('N#Cc1cnc(Nc2cc(NC[C@H]3CNCCO3)c(C(F)(F)F)cn2)cn1 [SRA737] + Nc1ccn([C@@H]2O[C@H](CO)[C@@H](O)C2(F)F)c(=O)n1 [Gemcitabine] (first compound max 10 µM, 7x7, partner max 0.3 µM)', 'SNU-16 (Gastric Carcinoma)', -0.103),
  ('Cc1c2c(nn1C)CSCc1cc(n(C)n1)CSc1cc(c3ccccc3c1)OCCCc1c(C(=O)O)n(C)c3c-2c(Cl)ccc13 [AZD5991] + CCN(CCO)CCCOc1ccc2c(Nc3cc(CC(=O)Nc4cccc(F)c4)[nH]n3)ncnc2c1 [AZD2811] (first compound max 1 µM, 7x7, partner max 1 µM)', 'SNU-16 (Gastric Carcinoma)', 0.0377),
  ('C=CCn1c(=O)c2cnc(Nc3ccc(N4CCN(C)CC4)cc3)nc2n1-c1cccc(C(C)(C)O)n1 [AZD1775] + O=C(c1cc(Cc2n[nH]c(=O)c3ccccc23)ccc1F)N1CCN(C(=O)C2CC2)CC1 [Olaparib] (first compound max 1 µM, partner max 10 µM)', 'SNU-16 (Gastric Carcinoma)', 0.0102),
  ('Cc1cc2ncnn2cc1Nc1ncc2c(n1)n(C1CCOCC1)c(=O)n2C [AZD7648] + O=C(c1cc(Cc2n[nH]c(=O)c3ccccc23)ccc1F)N1CCN(C(=O)C2CC2)CC1 [Olaparib] (first compound max 10 µM, 7x7, partner max 10 µM)', 'SNU-16 (Gastric Carcinoma)', -0.0301),
  ('O=C(c1cc(Cc2n[nH]c(=O)c3ccccc23)ccc1F)N1CCN(C(=O)C2CC2)CC1 [Olaparib] + COc1nnc2ccc(N3CCC(c4ccc(OCCN5CCN(C)C(=O)[C@H]5C)cc4)CC3)nn12 [AZD5153] (first compound max 10 µM, 7x7, partner max 1 µM)', 'SNU-16 (Gastric Carcinoma)', -0.0066);

Problem: Test system SNU-16 (Gastric Carcinoma); read-out Bliss excess; what value for NC1(C(=O)N[C@@H](CCO)c2ccc(Cl)cc2)CCN(c2ncnc3[nH]ccc23)CC1 [Capivasertib] + C[C@@H]1COCCN1C2=NC(=NC(=C2)C3(CC3)[S@](=N)(=O)C)C4=C5C=CNC5=NC=C4 [AZD6738] (first compound max 10 µM, 7x7, partner max 10 µM) ?;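 note: after 72 h of two-drug dosing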
Result: -0.0208
